Tested on: tyrosinase
Experiment: Tyrosinase inhibition, oxidation of L-tyrosine to L-DOPA
Format: biochemical
Details: 250 μg/ml
Excerpt: The enzyme tyrosinase catalyses the reactions leading to melanin biosynthesis from tyrosine. […] Substances inhibiting tyrosinase activity produce clearing/bleaching effect on the skin, since they block melanin synthesis. The method used to determine the inhibition of tyrosinase activity in the oxidation reaction of L-tyrosine to L-DOPA is that described in Kim et al. […] Biol. Pharm. Bull. 28(2), 323-327, 2005). […]
quantity: Test L-tyrosine-DOPA inhibitory activity (%)

Request the reported Test L-tyrosine-DOPA inhibitory activity (%) associated with C[C@@H]1O[C@@H](O[C@@H]2[C@@H](O)[C@H](OCCc3ccc(O)c(O)c3)O[C@H](CO)[C@H]2OC(=O)/C=C/c2ccc(O)c(O)c2)[C@H](O)[C@H](O)[C@H]1O [Verbascoside]
19.6

I: O=c1cc(CO)occ1O [Kojic acid, reference compound]
II: CC1OC(OC2C(O)C(COC(=O)C=Cc3ccc(O)c(O)c3)OC(OCCc3ccc(O)c(O)c3)C2O)C(O)C(O)C1O (stereo not shown) [Isoverbascoside]
III: Oc1cccc(O)c1 [Resorcinol, reference compound]
Sort by Test L-tyrosine-DOPA inhibitory activity (%), descending. Labels, requested order.
I, III, II

---

target: 5 alpha reductase type I (Homo sapiens)
Sequence (P18405 whole entry): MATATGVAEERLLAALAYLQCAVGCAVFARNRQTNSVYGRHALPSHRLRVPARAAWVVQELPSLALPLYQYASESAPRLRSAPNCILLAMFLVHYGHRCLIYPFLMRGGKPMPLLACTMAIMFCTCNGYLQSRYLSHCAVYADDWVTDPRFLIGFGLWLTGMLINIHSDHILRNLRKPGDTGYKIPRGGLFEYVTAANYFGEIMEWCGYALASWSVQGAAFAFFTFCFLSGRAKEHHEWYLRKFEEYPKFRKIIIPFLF
pIC50: −log10 of the molar value.
quantity: pIC50

Request the reported pIC50 associated with C[C@@H]1O[C@@H](O[C@@H]2[C@@H](O)[C@H](OCCc3ccc(O)c(O)c3)O[C@H](CO)[C@H]2OC(=O)/C=C/c2ccc(O)c(O)c2)[C@H](O)[C@H](O)[C@H]1O [Verbascoside]
4.68

Item: CC1OC(OC2C(O)C(COC(=O)C=Cc3ccc(O)c(O)c3)OC(OCCc3ccc(O)c(O)c3)C2O)C(O)C(O)C1O (centres unmarked) [Isoverbascoside]
4.72

---

test system: tyrosinase; assay: Tyrosinase inhibition, conversion of L-DOPA to DOPAquinone; type: biochemical, Mushroom; conditions: 100 μg/ml
quantity: Test LDOPA-DOPAquinone inhibitory activity (%)

As a guide, the following entries are already answered.
Notebook: pull reported Test LDOPA-DOPAquinone inhibitory activity (%) for tyrosinase, entry CC1OC(OC2C(O)C(COC(=O)C=Cc3ccc(O)c(O)c3)OC(OCCc3ccc(O)c(O)c3)C2O)C(O)C(O)C1O (stereo not shown) [Isoverbascoside]
10

Item: Oc1cccc(O)c1 [Resorcinol, reference compound]
0

A: C[C@@H]1O[C@@H](O[C@@H]2[C@@H](O)[C@H](OCCc3ccc(O)c(O)c3)O[C@H](CO)[C@H]2OC(=O)/C=C/c2ccc(O)c(O)c2)[C@H](O)[C@H](O)[C@H]1O [Verbascoside]
B: O=c1cc(CO)occ1O [Kojic acid, reference compound]
Lab note: record which item had the higher Test LDOPA-DOPAquinone inhibitory activity (%), A or B . Returns: label corresponding to the selected item.
B

---

Target: 5 alpha reductase type II (Homo sapiens)
Sequence (P31213 1-254): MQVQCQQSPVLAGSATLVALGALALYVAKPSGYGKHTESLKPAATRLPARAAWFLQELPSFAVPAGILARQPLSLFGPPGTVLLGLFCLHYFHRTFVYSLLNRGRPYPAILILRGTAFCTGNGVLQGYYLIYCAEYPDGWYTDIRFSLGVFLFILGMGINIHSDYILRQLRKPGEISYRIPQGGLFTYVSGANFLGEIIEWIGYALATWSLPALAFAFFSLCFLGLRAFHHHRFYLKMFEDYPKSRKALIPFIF
quantity: IC50 (µM)

Request the reported IC50 associated with CC1OC(OC2C(O)C(COC(=O)C=Cc3ccc(O)c(O)c3)OC(OCCc3ccc(O)c(O)c3)C2O)C(O)C(O)C1O (centres unmarked) [Isoverbascoside]
32

Item: C[C@@H]1O[C@@H](O[C@@H]2[C@@H](O)[C@H](OCCc3ccc(O)c(O)c3)O[C@H](CO)[C@H]2OC(=O)/C=C/c2ccc(O)c(O)c2)[C@H](O)[C@H](O)[C@H]1O [Verbascoside]
33.6

From: patent US10456434B2
